test system: Bacillus subtilis; assay: cleaved RNA product abundance (RNA/gDNA barcode ratio) relative to median wild-type variant (ratio to wild type); higher = more accumulation of the downstream cleavage product; conditions: experiment (reporter, strain, medium): exp 4a: truncated aprE reporter, strain BJT201 with 2% xylose (RNase J1 expressed); cleavage site: cggR-gapA (positions -7 to +36 mutated)
Reported endpoint: cleaved RNA product abundance
Just the number, please, no unit attached.

Query for Bacillus subtilis: what cleaved RNA product abundance does the record show for `ACAGACGAAGGAGCCGCAAAGAAGTTATTATGGGATTAATAATCCCTCAATATAAATATCTCTCACTTATTTAAA` ?
0.307

Bacillus subtilis / cleaved RNA product abundance / `ACAGACGAAGGAGCCGCAAACAAGTTATTAAGAGATGAATAATCCCTCAATATAAATATCTCTCACTTATTTAAA` : value?
0.118

Look up cleaved RNA product abundance with Bacillus subtilis for this sequence: `ACAGACGAAGGAGCCGCAAAGAAGTTATTAATGGATGTATAATCCCTCAATATAAATATCTCTCACTTATTTAAA`
0.211

API: value(readout=cleaved RNA product abundance, system=Bacillus subtilis) for record `ACAGACGAAGGAGCCGCAAAGAAGTTATTAAGGGATGAATAATCCGTCAATATAGATATCTCTCACTTATTTAAA`
0.314

Param readout = cleaved RNA product abundance; param system = Bacillus subtilis; param query = `ACAGACGAAGGAGCCGCAAAGAAGTTATTAAGGGATGACTAATCCCTCTATATAAATATCTCTCACTTATTTAAA` ; response: value
0.337

# query: cleaved RNA product abundance | item `ACAGACGAAGGAGCCGCAAATAAGTTATTAAGGGATGAATCATCCCTCAATATAAATATCTCTCACTTATTTAAA` | system: Bacillus subtilis
0.899

Identify the measured cleaved RNA product abundance of `ACAGACGAAGGAGCCGCAAAGAAGTTATGAAGGGATGAATAATCCGTCAATATAAATATCTCTCACTTATTTAAA` for Bacillus subtilis.
0.222

What value of cleaved RNA product abundance on Bacillus subtilis does `ACAGACGAAGGAGCCGCAAAGTAGTTATTAAGGGATGAATAATCCCACAATATAAATATCTCTCACTTATTTAAA` have?
0.223

Can you look up cleaved RNA product abundance on Bacillus subtilis for `ACAGACGAAGGAGCCGCAAAGAAGTTATTAAGGGATGAATAATCACTCAATATAAAAATCTCTCACTTATTTAAA` ?
0.136

Tell me reported cleaved RNA product abundance for `ACAGACGAAGGAGCCGCAAACAAGTTATTAAGGGATGAATAATTCCTCAATATAAATATCTCTCACTTATTTAAA` , tested with Bacillus subtilis.
0.422

Provide value of cleaved RNA product abundance for this record tested with Bacillus subtilis: `ACAGACGAAGGAGCCGCAAAGAAGTGATTAAGGGATTAATAATCCCTCAATATAAATATCTCTCACTTATTTAAA`
0.325

Please state recorded cleaved RNA product abundance (tested on Bacillus subtilis) of `ACAGACGAAGGAGCCGCAAAGAAGTTATGAAAGGATGAATAATCCCTCAATATAAATATCTCTCACTTATTTAAA`
0.178

Please state recorded cleaved RNA product abundance (tested on Bacillus subtilis) of `ACAGACGAAGGAGCCGCAAAGAAGTTATTAATGGATGAATAATCCATCAATATAAATATCTCTCACTTATTTAAA`
1.21

Quick check: cleaved RNA product abundance on Bacillus subtilis, item `ACAGACGAAGGAGCCGCAAAGAAGTTATTAAGGGATGTATAATCCTTCAATATAAATATCTCTCACTTATTTAAA` ?
0.922

For the record `ACAGACGAAGGAGCCGCAAAGAAGTTATTAAGGGATAAATAATCCCTCAATATAAATAACTCTCACTTATTTAAA` , what value of cleaved RNA product abundance is listed for Bacillus subtilis?
0.823

Lab note: need cleaved RNA product abundance for `ACAGACGAAGGAGCCGCAAAGAAGTTATTAAGGGATGAATAATCCCTCAATATATATATCTCTCACTTATTTAAA` on Bacillus subtilis, anyone have it?
0.885

Please tell me: cleaved RNA product abundance of `ACAGACGAAGGAGCCGCAAAGAAGGTATTAAGGGATGAATAATCCATCAATATAAATATCTCTCACTTATTTAAA` , system Bacillus subtilis?
0.13

What is its cleaved RNA product abundance for Bacillus subtilis? Entry: `ACAGACGAAGGAGCCGCAAAGAAGTTATTAAGGGATGAGTAATCCCTCATTATAAATATCTCTCACTTATTTAAA`
0.185

# value lookup — system Bacillus subtilis, readout cleaved RNA product abundance, item `ACAGACGAAGGAGCCGCAAAGAAGTTATTAAGGGATGAATAATCTTTCAATATAAATATCTCTCACTTATTTAAA`
0.122

State its cleaved RNA product abundance on Bacillus subtilis: `ACAGACGAAGGAGCCGCAAAGAAGTTACTAAGGTATGAATAATCCCTCAATATAAATATCTCTCACTTATTTAAA`
0.15

What is its cleaved RNA product abundance for Bacillus subtilis? Entry: `ACAGACGAAGGAGCCGCAAAGAAGTTATTAAGCGATGTATAATCCCTCAATATAAATATCTCTCACTTATTTAAA`
0.08

Identify the measured cleaved RNA product abundance of `ACAGACGAAGGAGCCGCAAAGAAGCTATTAAGGGATGAATAATCCCTCAATATAAATAACTCTCACTTATTTAAA` for Bacillus subtilis.
0.674

Query for Bacillus subtilis: what cleaved RNA product abundance does the record show for `ACAGACGAAGGAGCCGCAAAGAAGTTATTAAGGGATAAATAATCCCTAAATATAAATATCTCTCACTTATTTAAA` ?
0.734

Hello, I am looking for reported cleaved RNA product abundance with Bacillus subtilis for `ACAGACGAAGGAGCCGCAAAGAAGTTATTAAGGGATGAATACTCCCTCCATATAAATATCTCTCACTTATTTAAA` . Could you help?
0.218

Give recorded cleaved RNA product abundance with Bacillus subtilis for the following sequence: `ACAGACGAAGGAGCCGCAAAGAAATTATTAAGGGATGACTAATCTCTCAATATAAATATCTCTCACTTATTTAAA`
0.582

Recorded cleaved RNA product abundance for `ACAGACGAAGGAGCCGCAAAGAAGTTATTAAGGGATGACTAATCCCTCAATATAAATATCTCTCACTTATTTAAA` with Bacillus subtilis, please?
0.679

Return cleaved RNA product abundance measured with Bacillus subtilis given this sequence: `ACAGACGAAGGAGCCGCAAAAAAGTTATTAAGGGATGAATAATCACTCAATATAAATATCTCTCACTTATTTAAA`
0.12

Please tell me: cleaved RNA product abundance of `ACAGACGAAGGAGCCGCAAAGAAGATATTAAGGCATGAATAATCCCTCAATATAAATATCTCTCACTTATTTAAA` , system Bacillus subtilis?
0.17

Quick check: cleaved RNA product abundance on Bacillus subtilis, item `ACAGACGAAGGAGCCGCAAAGAAGTTATTAAGGGATGAATAATCCCTCAAAAAAAATATCTCTCACTTATTTAAA` ?
0.0713

Could you share what cleaved RNA product abundance was measured for `ACAGACGAAGGAGCCGCAAAGAAGTTATTAATGGATGAATAATCCCTCAATAGAAATATCTCTCACTTATTTAAA` , tested on Bacillus subtilis?
0.0769
